Test: Retention time of the compound in mouse plasma at 400 ug/ml after 48 hrs by RP-HPLC method
Assay type: ADME, cell-free
*1 amine or outer side, *2 acyl side, *3 side chain or, on linkers, in order; H or OH if unused. Where a SMILES comes first, the peptide text is derived from it. [ ]: non-standard residue; d: D form. X1 = C=CC(C)(C)n1cc(C[C@@H](N[*:1])C(=O)[*:2])c2ccccc21; dTrp(1-Bu) = CCCCn1cc(C[C@@H](N)C(=O)O)c2ccccc21; dNMeF = CN[C@H](Cc1ccccc1)C(=O)O

molecule	Retention_time [min]
CCCCn1cc(C[C@@H](NC(=O)[C@H](Cc2ccccc2)NC(=O)[C@@H](Cc2c[nH]c3ccccc23)NC(=O)[C@@H](Cc2ccccc2)NC)C(=O)N[C@@H](CC(C)C)C(=O)O)c2ccccc21 (H-[dNMeF][dW]F[dTrp(1-Bu)]L-OH)	25.27
CCCCn1cc(C[C@@H](NC(=O)[C@H](Cc2ccccc2)NC(=O)[C@@H](Cc2cn(CCCC)c3ccccc23)NC(=O)[C@@H](Cc2ccccc2)NC)C(=O)N[C@@H](CC(C)C)C(N)=O)c2ccccc21 (H-[dNMeF][dTrp(1-Bu)]F[dTrp(1-Bu)]L-NH2)	27.94
C=CC(C)(C)n1cc(C[C@@H](NC(=O)[C@H](Cc2ccccc2)NC(=O)[C@@H](Cc2c[nH]c3ccccc23)NC(=O)[C@@H](Cc2ccccc2)NC)C(=O)N[C@@H](CC(C)C)C(N)=O)c2ccccc21 (H-[dNMeF][dW]F[X1]L-NH2)	24.86
CCCCn1cc(C[C@@H](NC(=O)[C@H](Cc2ccccc2)NC(=O)[C@@H](Cc2c[nH]c3ccccc23)NC(=O)[C@@H](Cc2ccccc2)NC)C(=O)N[C@@H](CC(C)C)C(N)=O)c2ccccc21 (H-[dNMeF][dW]F[dTrp(1-Bu)]L-NH2)	25.23

###

Test: Metabolic stability in neat mouse plasma assessed as parent compound remaining at 400 ug/ml after 48 hrs by RP-HPLC method
Assay type: ADME, cell-free
Conditions: read-out: Stability
*1 amine or outer side, *2 acyl side, *3 side chain or, on linkers, in order; H or OH if unused. Where a SMILES comes first, the peptide text is derived from it. [ ]: non-standard residue; d: D form. X1 = C=CC(C)(C)n1cc(C[C@@H](N[*:1])C(=O)[*:2])c2ccccc21; dNMeF = CN[C@H](Cc1ccccc1)C(=O)O

molecule	scale_unit	remaining at 48 h, 400 ug/ml
C=CC(C)(C)n1cc(C[C@@H](NC(=O)[C@H](Cc2ccccc2)NC(=O)[C@@H](Cc2c[nH]c3ccccc23)NC(=O)[C@@H](Cc2ccccc2)NC)C(=O)N[C@@H](CC(C)C)C(N)=O)c2ccccc21 (H-[dNMeF][dW]F[X1]L-NH2)	%	35.9

###

Experiment: Retention time of the compound in mouse plasma at 400 ug/ml after 24 hrs by RP-HPLC method
Assay type: ADME, cell-free
*1 amine or outer side, *2 acyl side, *3 side chain or, on linkers, in order; H or OH if unused. Where a SMILES comes first, the peptide text is derived from it. [ ]: non-standard residue; d: D form. X1 = C=CC(C)(C)n1cc(C[C@@H](N[*:1])C(=O)[*:2])c2ccccc21; dTrp(1-Bu) = CCCCn1cc(C[C@@H](N)C(=O)O)c2ccccc21; dNMeF = CN[C@H](Cc1ccccc1)C(=O)O

molecule	Retention_time, min
C=CC(C)(C)n1cc(C[C@@H](NC(=O)[C@H](Cc2ccccc2)NC(=O)[C@@H](Cc2c[nH]c3ccccc23)NC(=O)[C@@H](Cc2ccccc2)NC)C(=O)N[C@@H](CC(C)C)C(N)=O)c2ccccc21 (H-[dNMeF][dW]F[X1]L-NH2)	24.86
CCCCn1cc(C[C@@H](NC(=O)[C@H](Cc2ccccc2)NC(=O)[C@@H](Cc2c[nH]c3ccccc23)NC(=O)[C@@H](Cc2ccccc2)NC)C(=O)N[C@@H](CC(C)C)C(N)=O)c2ccccc21 (H-[dNMeF][dW]F[dTrp(1-Bu)]L-NH2)	25.26
CCCCn1cc(C[C@@H](NC(=O)[C@H](Cc2ccccc2)NC(=O)[C@@H](Cc2c[nH]c3ccccc23)NC(=O)[C@@H](Cc2ccccc2)NC)C(=O)N[C@@H](CC(C)C)C(=O)O)c2ccccc21 (H-[dNMeF][dW]F[dTrp(1-Bu)]L-OH)	25.29
CCCCn1cc(C[C@@H](NC(=O)[C@H](Cc2ccccc2)NC(=O)[C@@H](Cc2cn(CCCC)c3ccccc23)NC(=O)[C@@H](Cc2ccccc2)NC)C(=O)N[C@@H](CC(C)C)C(N)=O)c2ccccc21 (H-[dNMeF][dTrp(1-Bu)]F[dTrp(1-Bu)]L-NH2)	27.94
